Hello, the source for this data is the supplement of paper PMC4862054, in case you need it.

- System: CAL-120
- assay text: normalised viability (% of control), CellTiter-Blue; higher = more viable cells (about 100 = DMSO control)
- condition info: 100 nM; incubation time: 72 h
assay readout: normalised viability
Quick note: unit goes after the number.

Would you please look over these solved cases?
[
  {
    "compound": "Cc1c(N)nc([C@H](CC(N)=O)NC[C@H](N)C(N)=O)nc1C(=O)N[C@H](C(=O)N[C@H](C)[C@@H](O)[C@H](C)C(=O)N[C@H](C(=O)NCCc1nc(-c2nc(C(=O)NCCC[S+](C)C)cs2)cs1)[C@@H](C)O)[C@@H](OC1OC(CO)C(O)C(O)C1OC1OC(CO)C(O)C(OC(N)=O)C1O)c1cnc[nH]1 (stereo not given in full)",
    "target entity": "CAL-120",
    "observed value": "86.3%"
  },
  {
    "compound": "Cn1nnc2c(C(N)=O)ncn2c1=O [Temozolomide]",
    "target entity": "CAL-120",
    "observed value": "95.9%"
  },
  {
    "compound": "C[C@@H](CN1CC(=O)NC(=O)C1)N1CC(=O)NC(=O)C1",
    "target entity": "CAL-120",
    "observed value": "91.8%"
  }
]

Query: Respond only with normalised viability recorded for C[C@@H]1C[C@H]2[C@@H]3CCC4=CC(=O)C=C[C@]4(C)[C@@]3(F)[C@@H](O)C[C@]2(C)[C@@]1(O)C(=O)CO
Response: 68.5%

Query: Respond only with normalised viability recorded for Cc1c(C(=O)Nc2ccc(N3C[C@@H](C)O[C@@H](C)C3)nc2)cccc1-c1ccc(OC(F)(F)F)cc1
Response: 99.7%

* * *

- System: HCC1143
- assay text: normalised viability (% of control), CellTiter-Blue; higher = more viable cells (about 100 = DMSO control)
- condition info: 10000 nM; incubation time: 72 h
assay readout: normalised viability

Would you please look over these solved cases?
[
  {
    "compound": "Nc1nc(Cl)nc2c1ncn2[C@@H]1O[C@H](CO)[C@@H](O)[C@@H]1F",
    "target entity": "HCC1143",
    "normalised viability": "45%"
  },
  {
    "compound": "C[C@]12C=CC(=O)C=C1CC[C@@H]1[C@@H]2C(=O)C[C@@]2(C)[C@H]1CC[C@]2(O)C(=O)CO",
    "target entity": "HCC1143",
    "normalised viability": "86.8%"
  },
  {
    "compound": "NC(=O)c1cccc2cn(-c3ccc([C@@H]4CCCNC4)cc3)nc12",
    "target entity": "HCC1143",
    "normalised viability": "64.6%"
  }
]

Query: Param request: normalised viability | system HCC1143 | item Cc1c(N)nc([C@H](CC(N)=O)NC[C@H](N)C(N)=O)nc1C(=O)N[C@H](C(=O)N[C@H](C)[C@@H](O)[C@H](C)C(=O)N[C@H](C(=O)NCCc1nc(-c2nc(C(=O)NCCC[S+](C)C)cs2)cs1)[C@@H](C)O)[C@@H](OC1OC(CO)C(O)C(O)C1OC1OC(CO)C(O)C(OC(N)=O)C1O)c1cnc[nH]1 (stereo not given in full)
Response: 49.4%

Query: Param request: normalised viability | system HCC1143 | item CC(C)C(=O)Nc1ccc([N+](=O)[O-])c(C(F)(F)F)c1 [Flutamide]
Response: 82.5%

* * *

- Tested on: SK-BR-3
- assay text: normalised viability (% of control), CellTiter-Blue; higher = more viable cells (100 = DMSO, 0 = benzethonium chloride kill control)
- condition info: incubation time: 72 h
assay readout: normalised viability (%)
Please reply with the bare figure in % and do not write the unit itself.

[
  {
    "compound": "C[C@@H](C(=O)O)c1ccc(-c2ccccc2)c(F)c1 [Tarenflurbil] (1 nM)",
    "normalised viability, %": 87.9
  },
  {
    "compound": "Nc1nc(Cl)nc2c1ncn2[C@@H]1O[C@H](CO)[C@@H](O)[C@@H]1F [Clofarabine] (1 nM)",
    "normalised viability, %": 91
  },
  {
    "compound": "CO[C@H]1C[C@@H]2CC[C@@H](C)[C@@](O)(O2)C(=O)C(=O)N2CCCC[C@H]2C(=O)O[C@H]([C@H](C)C[C@@H]2CC[C@@H](O)[C@H](OC)C2)CC(=O)[C@H](C)/C=C(\\C)[C@@H](O)[C@@H](OC)C(=O)[C@H](C)C[C@H](C)/C=C/C=C/C=C/1C [Sirolimus] (0.1 nM)",
    "normalised viability, %": 90.8
  },
  {
    "compound": "CCN(CC)CCOc1ccc(C(=C(Cl)c2ccccc2)c2ccccc2)cc1 [Clomifene] (1 nM)",
    "normalised viability, %": 96.7
  }
]

Query: Respond only with normalised viability recorded for Cc1cc2c(F)c(Oc3ncnn4cc(OC[C@@H](C)O)c(C)c34)ccc2[nH]1 [Brivanib] (0.1 nM)
Response: 98

Query: Respond only with normalised viability recorded for COc1cc2c(N3CCN(C(=O)Nc4ccc(OC(C)C)cc4)CC3)ncnc2cc1OCCCN1CCCCC1 [Tandutinib] (0.1 nM)
Response: 106

* * *

Measured drug sensitivity score accompanies every entry in the list below.
- System: MDA-MB-468
- assay text: drug sensitivity score (DSS), CellTiter-Blue viability (DSS (AUC-based score)); higher = stronger viability inhibition; extreme values may be limits of the assay
- condition info: incubation time: 72 h

Would you please look over these solved cases?
[
  {
    "compound": "Cn1nnc2c(C(N)=O)ncn2c1=O [Temozolomide]",
    "target entity": "MDA-MB-468",
    "assay readout": "drug sensitivity score",
    "observed value": 0
  },
  {
    "compound": "CN1CCN(c2nc(C3=C(c4c[nH]c5ccccc45)C(=O)NC3=O)c3ccccc3n2)CC1",
    "target entity": "MDA-MB-468",
    "assay readout": "drug sensitivity score",
    "observed value": 0
  },
  {
    "compound": "Cc1c(C(=O)Nc2ccc(N3C[C@@H](C)O[C@@H](C)C3)nc2)cccc1-c1ccc(OC(F)(F)F)cc1",
    "target entity": "MDA-MB-468",
    "assay readout": "drug sensitivity score",
    "observed value": 0
  },
  {
    "compound": "O=C(c1cc(Cc2n[nH]c(=O)c3ccccc23)ccc1F)N1CCN(C(=O)C2CC2)CC1",
    "target entity": "MDA-MB-468",
    "assay readout": "drug sensitivity score",
    "observed value": 2.78
  }
]

Now consider the entry below.
Query: Respond only with drug sensitivity score recorded for CCN(CC)CCOc1ccc(C(=C(Cl)c2ccccc2)c2ccccc2)cc1
Response: 4.91

* * *

- Tested on: HCC1937
- assay text: normalised viability (% of control), CellTiter-Blue; higher = more viable cells (100 = DMSO, 0 = benzethonium chloride kill control)
- condition info: incubation time: 72 h
assay readout: normalised viability (%)
Please reply with the bare figure in % and do not write the unit itself.

Would you please look over these solved cases?
[
  {
    "compound": "O=C(O)CC[C@H]1CC[C@@](c2cc(F)ccc2F)(S(=O)(=O)c2ccc(Cl)cc2)CC1 [MK-0752] (0.1 nM)",
    "target entity": "HCC1937",
    "normalised viability [%]": 84.8
  },
  {
    "compound": "Cc1c(C(=O)Nc2ccc(N3C[C@@H](C)O[C@@H](C)C3)nc2)cccc1-c1ccc(OC(F)(F)F)cc1 [NVP-LDE225] (1 nM)",
    "target entity": "HCC1937",
    "normalised viability [%]": 96.4
  },
  {
    "compound": "C[C@@H]1C[C@H]2[C@@H]3CCC4=CC(=O)C=C[C@]4(C)[C@@]3(F)[C@@H](O)C[C@]2(C)[C@@]1(O)C(=O)CO [Dexamethasone] (1 nM)",
    "target entity": "HCC1937",
    "normalised viability [%]": 82
  },
  {
    "compound": "N[C@@H](Cc1ccc(N(CCCl)CCCl)cc1)C(=O)O [Melphalan] (0.099 nM)",
    "target entity": "HCC1937",
    "normalised viability [%]": 87.2
  }
]

Query: Respond only with normalised viability recorded for Nc1nc(Cl)nc2c1ncn2[C@@H]1O[C@H](CO)[C@@H](O)[C@@H]1F [Clofarabine] (1 nM)
Response: 93.7

* * *

- Tested on: BT-549
- assay text: normalised response (% of control), CellTiter-Glo; higher = more viable cells (100 = DMSO, 0 = benzethonium chloride kill control)
- condition info: incubation time: 72 h
Measured normalised response accompanies every entry in the list below.
Please reply with the bare figure in % and do not write the unit itself.

Would you please look over these solved cases?
[
  {
    "compound": "CCc1c(C(=O)C(N)=O)c2c(OCC(=O)O)cccc2n1Cc1ccccc1 [Varespladib] (100 nM)",
    "assay readout": "normalised response",
    "observed value": 100
  },
  {
    "compound": "CC(C)n1nc(-c2ccc3oc(N)nc3c2)c2c(N)ncnc21 [INK128] (10 nM)",
    "assay readout": "normalised response",
    "observed value": 74.7
  },
  {
    "compound": "CC[C@@H]1C(=O)N(C)c2cnc(Nc3ccc(C(=O)N[C@H]4CC[C@H](N5CCN(CC6CC6)CC5)CC4)cc3OC)nc2N1C(C)C [Volasertib] (10 nM)",
    "assay readout": "normalised response",
    "observed value": 89.8
  }
]

Query: Param request: normalised response | system BT-549 | item C[C@@H]1C[C@H]2[C@@H]3CCC4=CC(=O)C=C[C@]4(C)[C@@]3(F)[C@@H](O)C[C@]2(C)[C@@]1(O)C(=O)CO [Dexamethasone] (100 nM)
Response: 103

Query: Param request: normalised response | system BT-549 | item CC/C(=C(\c1ccccc1)c1ccc(OCCN(C)C)cc1)c1ccccc1 [Tamoxifen] (100 nM)
Response: 99.2

Query: Param request: normalised response | system BT-549 | item O=NN(CCCl)C(=O)NC1CCCCC1 [Lomustine] (100 nM)
Response: 103

Query: Param request: normalised response | system BT-549 | item CO[C@H](C(=O)[C@@H](O)[C@@H](C)O)[C@@H]1Cc2cc3cc(O[C@H]4C[C@@H](O[C@@H]5C[C@@H](O)[C@H](O)[C@@H](C)O5)[C@H](O)[C@@H](C)O4)c(C)c(O)c3c(O)c2C(=O)[C@H]1O[C@H]1C[C@@H](O[C@@H]2C[C@@H](O)[C@@H](O[C@@H]3C[C@](C)(O)[C@H](O)[C@@H](C)O3)[C@@H](C)O2)[C@H](O)[C@@H](C)O1 [Plicamycin] (100 nM)
Response: 103

Query: Param request: normalised response | system BT-549 | item Cn1cc(C[C@@H](N)C(=O)O)c2ccccc21 [1-methyl-D-tryptophan] (50 nM)
Response: 107

Query: Param request: normalised response | system BT-549 | item COc1cc2c(Oc3ccc(NC(=O)C4(C(=O)Nc5ccc(F)cc5)CC4)cc3F)ccnc2cc1OCCCN1CCOCC1 [Foretinib] (10 nM)
Response: 105

Query: Param request: normalised response | system BT-549 | item CCCCCOC(=O)Nc1nc(=O)n([C@@H]2O[C@H](C)[C@@H](O)[C@H]2O)cc1F [Capecitabine] (100 nM)
Response: 102
